Data credit: ChEMBL document CHEMBL1136420

Target System: Nucleic Acid
Assay Protocol: Dissociation constant using ethidium-bromide displacement test
Numbered stars: 1 amine (or outer) side, 2 acyl side, 3 side chain; on linkers, the order of the positions; unused ones are H or OH. Square brackets hold non-standard residues; d marks the D form. Peptide text beside a SMILES is read from it. Ala(2,4-dioxoquinazolin-3-yl) = N[C@@H](Cn1c(=O)[nH]c2ccccc2c1=O)C(=O)O; Ala(uracil-1-yl) = N[C@@H](Cn1ccc(=O)[nH]c1=O)C(=O)O; X2 = Cc1cn(C[C@H](N[*:1])C(=O)[*:2])c(=O)[nH]c1=O; X1 = Nc1ncnc2c1ncn2C[C@H](N[*:1])C(=O)[*:2]; Sar = CNCC(=O)O
Observable: pKd
Scale: negative log10 of molar concentration, which is what pKd denotes.

CC(=O)N[C@@H](CCCN=C(N)N)C(=O)N[C@@H](Cn1ccc(=O)[nH]c1=O)C(=O)N(C)CC(=O)N[C@@H](Cn1c(=O)[nH]c2ccccc2c1=O)C(=O)N[C@@H](Cn1c(=O)[nH]c2ccccc2c1=O)C(=O)N[C@@H](Cn1cnc2c(N)ncnc21)C(=O)N[C@@H](CCCN=C(N)N)C(N)=O (Ac-R[Ala(uracil-1-yl)][Sar][Ala(2,4-dioxoquinazolin-3-yl)][Ala(2,4-dioxoquinazolin-3-yl)][X1]R-NH2) ... 3.41

Which pKd is reported for this compound? CC(=O)N[C@@H](CCCN=C(N)N)C(=O)N[C@@H](Cn1ccc(=O)[nH]c1=O)C(=O)N(C)CC(=O)N[C@@H](Cn1cc(C)c(=O)[nH]c1=O)C(=O)N[C@@H](Cn1c(=O)[nH]c2ccccc2c1=O)C(=O)N[C@@H](Cn1cnc2c(N)ncnc21)C(=O)N[C@@H](CCCN=C(N)N)C(N)=O (Ac-R[Ala(uracil-1-yl)][Sar][X2][Ala(2,4-dioxoquinazolin-3-yl)][X1]R-NH2)
3.66
